assay: chemical genetic growth profiling, strain panel (AID 1159580);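 further: tested at 20 µM; growth read once vehicle control cultures reached saturation at 30 °C; lower values mean less growth of the strain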; conditions: S. cerevisiae deletion strains, growth OD, locus YNL067W, strain RPL9B, hits give low values
The campaign covered roughly 5,500 compounds. About 2,000 (36%) were called active. Another 18% or so got no clear call; they are omitted. Some of the results follow.
# strict inequality: normalized growth < 1 yields criterion met, everything else yields criterion not met

Molecule: C=CC(C)(O)CC/C=C(\C)CCC=C(C)C (stereo unspecified)
Assigned label: criterion met
//
Molecule: O=C(O[C@@H]1Cc2c(O)cc(O)cc2O[C@@H]1c1cc(O)c(O)c(O)c1-c1c([C@H]2Oc3cc(O)cc(O)c3C[C@H]2O)cc(O)c(O)c1O)c1cc(O)c(O)c(O)c1
Assigned label: criterion met
//
Molecule: c1ccc2c(c1)cc1ccc3cccc4ccc2c1c34
Assigned label: criterion not met
